Field: pIC50. System: UniProt Q99683. Provenance: assorted publications.
pIC50: −log10 of the molar value.

Consider the worked cases shown below.
chemical_structure | experimental_target | pIC50
CCOC(=O)N1CCc2cc(F)c(C(=O)Nc3cccc(-c4nnnn4C(C)C)n3)cc2C1 | UniProt Q99683 | 7.00 to 8.00
COc1cc2c(cc1C(=O)Nc1cccc(-c3nnnn3[C@H](C)CO)n1)CN(C(=O)[C@@H]1CCOC1)CC2 | UniProt Q99683 | > 8.90
CC(C)n1nnnc1-c1cccc(NC(=O)c2cc3c(cc2F)CCN(C(=O)N(C)C)C3)n1 | UniProt Q99683 | 7.00 to 8.00
C[C@H](CO)n1nnnc1-c1cccc(NC(=O)c2cc3c(cc2F)CCN(S(=O)(=O)C2CC2)C3)n1 | UniProt Q99683 | 7.00 to 8.00
CC(C)n1nnnc1-c1cccc(NC(=O)c2cc3c(cc2F)CCN(C(=O)N2C[C@@H](C)O[C@@H](C)C2)C3)n1 | UniProt Q99683 | 7.00 to 8.00
CC(C)n1cnnc1-c1cccc(N2Cc3ccsc3C2=O)n1 | UniProt Q99683 | > 6.00

Input line: // output pIC50; input `CC(C)CC(=O)N1CCc2cnc(C(=O)Nc3cccc(-c4nnnn4[C@H](C)CO)n3)cc2C1` ; system UniProt Q99683
Output line: 8.00 to 9.00

Input line: // output pIC50; input `Cc1cc(F)c(C(=O)Nc2cccc3c2OC[C@@H](C2CC2)n2cnnc2-3)cc1-n1cnc(C2CC2)c1` ; system UniProt Q99683
Output line: 7.93

Input line: // output pIC50; input `CN1CCN(c2cnc(C(=O)Nc3cccc4c3OCCn3nnnc3-4)cc2-n2cnc(C3CC3)c2)CC1` ; system UniProt Q99683
Output line: 8.23

Input line: // output pIC50; input `CC(C)n1cnnc1-c1cccc(N2COc3ccc(-c4ccc(S(C)(=O)=O)cc4)cc3C2=O)n1` ; system UniProt Q99683
Output line: 7.30

---

Field: IC50. System: UniProt:Q99683. Provenance: assorted publications.

Consider the worked cases shown below.
chemical_structure | observed_measurement
CSC1CCN(C(=O)c2ccc3c(c2)CN(c2cccc(-c4nncn4C4CC4)n2)C3=O)CC1 | < 200 nM
CC(C)n1nnnc1-c1cccc(NC(=O)c2cc3c(cc2F)CCN(S(=O)(=O)CC2CC(F)(F)C2)C3)n1 | 10 to 100 nM
CC(C)c1nnnn1-c1cccc(N2Cc3ccc(-n4cnc(C5CC5)c4)cc3C2=O)n1 | 1 to 10 nM

Below: the item to evaluate.
Input line: // output IC50; input `COc1cc2c(cc1C(=O)Nc1cccc(-c3nncn3C(C)C)n1)CN(C(=O)C(C)(C)CO)CC2` ; system UniProt:Q99683
Output line: < 1.25 nM

---

pIC50: −log10 of the molar value.
Field: pIC50. System: UniProtKB Q99683. Provenance: assorted publications.

compound | pIC50
Cc1ncccc1-c1ccc2c(c1)C(=O)N(c1cccc(-c3nncn3C3CC3)n1)C2 | > 6.70
CSc1ccc(-c2ccc(C(=O)Nc3cccc(-c4nncn4C(C)C)n3)[nH]2)cc1 | 8.51
Cc1cc(F)c(C(=O)Nc2cccc(-c3nnnn3[C@H](C)CO)n2)cc1-c1ccc(C2CC2)s1 | 8.00 to 9.00
CC(C)n1cnnc1-c1cccc(NC(=O)c2cc3c(cn2)CN(C(=O)OCc2ccccc2)C3)n1 | 7.00 to 8.00
CCN(C)C(=O)N1Cc2ccc(C(=O)Nc3cccc(-c4nnnn4C(C)C)n3)cc2C1 | < 6.00

Input line: // output pIC50; input `CC(C)n1nnnc1-c1cccc(NC(=O)c2cc3sc(N4CCN(C(C)(C)C)CC4)nc3cc2F)n1` ; system UniProtKB Q99683
Output line: < 6.00

Input line: // output pIC50; input `C[C@H](CO)n1nnnc1-c1cccc(NC(=O)c2cc3c(cn2)CCN(C(=O)c2cn(C4CC4)cn2)C3)n1` ; system UniProtKB Q99683
Output line: 8.00 to 8.90

Input line: // output pIC50; input `C[C@H](CO)n1nnnc1-c1cccc(NC(=O)c2cc3c(cn2)CCN(S(=O)(=O)N2CCCC2)C3)n1` ; system UniProtKB Q99683
Output line: 8.00 to 9.00

Input line: // output pIC50; input CC1c2cc(C(=O)Nc3cccc(-c4nnnn4C(C)C)n3)c(F)cc2CCN1S(=O)(=O)CCC(F)(F)F (stereo not drawn) ; system UniProtKB Q99683
Output line: 7.00 to 8.00
